system: RARa homodimer (NR concentration 270 nM); experiment: PBM binding z-score (relative to random genomic background probes); higher = stronger binding; sequences stand for … in GC…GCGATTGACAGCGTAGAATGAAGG
Measurement type: PBM binding z-score
Respond numerically, and do not add a unit to the figure.

# Polymer sequence, PBM binding z-score
rows = [
    ("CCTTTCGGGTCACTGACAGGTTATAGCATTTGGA", 0.858),
    ("GGAACGAGGGCATTCGAGTTGATAGGATGGCGAT", -0.456),
    ("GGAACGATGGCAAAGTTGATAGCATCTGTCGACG", -1.19),
    ("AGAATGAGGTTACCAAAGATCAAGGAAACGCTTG", -0.42),
    ("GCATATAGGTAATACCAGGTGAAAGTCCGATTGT", 0.331),
    ("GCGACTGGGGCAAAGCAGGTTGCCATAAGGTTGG", -0.719),
    ("CCGACTGGGCCAAAGGTTACCATACTCAGTACGA", 0.224),
    ("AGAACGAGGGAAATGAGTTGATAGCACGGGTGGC", -0.0061),
    ("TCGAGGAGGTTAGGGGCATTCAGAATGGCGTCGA", 0.232),
    ("CCTACTGGGCCATAGGTCATTGATTCCAATGCTC", -0.287),
]

[Q] Form field: PBM binding z-score recorded for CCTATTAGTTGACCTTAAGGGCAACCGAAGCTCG with RARa homodimer (NR concentration 270 nM) (enter value)
[A] 2.39

[Q] Form field: PBM binding z-score recorded for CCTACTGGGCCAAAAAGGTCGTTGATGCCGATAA with RARa homodimer (NR concentration 270 nM) (enter value)
[A] 0.0186

[Q] Form field: PBM binding z-score recorded for CCTACTGGGTCATCAGGTCATTGATATCAACGTT with RARa homodimer (NR concentration 270 nM) (enter value)
[A] 1.85

[Q] Form field: PBM binding z-score recorded for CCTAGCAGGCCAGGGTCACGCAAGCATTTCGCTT with RARa homodimer (NR concentration 270 nM) (enter value)
[A] -0.191

[Q] Form field: PBM binding z-score recorded for TTATATAGGTAAATGCTAGGTGAAAGTCCGATCT with RARa homodimer (NR concentration 270 nM) (enter value)
[A] 1.58

[Q] Form field: PBM binding z-score recorded for AGAATGAAGTTAAGATCAGGGAAACAGAATACAT with RARa homodimer (NR concentration 270 nM) (enter value)
[A] 0.347

[Q] Form field: PBM binding z-score recorded for ATCTCTGGGTAAAGATAGTTCAGTGAATGCAAAT with RARa homodimer (NR concentration 270 nM) (enter value)
[A] 1.1

[Q] Form field: PBM binding z-score recorded for TAGCTTAGGTCATTCAGGGGCCAGTATAGAAAGC with RARa homodimer (NR concentration 270 nM) (enter value)
[A] 0.433

[Q] Form field: PBM binding z-score recorded for CCTACTGGGCCAAGGTCACTGATCAGTCAAAGCA with RARa homodimer (NR concentration 270 nM) (enter value)
[A] 0.0362

[Q] Form field: PBM binding z-score recorded for TAGAGTAGGTTACCAATGGGGCATTCAGCTTTCT with RARa homodimer (NR concentration 270 nM) (enter value)
[A] 1.18

[Q] Form field: PBM binding z-score recorded for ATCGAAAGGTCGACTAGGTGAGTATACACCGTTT with RARa homodimer (NR concentration 270 nM) (enter value)
[A] 0.35

[Q] Form field: PBM binding z-score recorded for AATACAGGGTCACTAGGCCAGAGTTGGTACGAAT with RARa homodimer (NR concentration 270 nM) (enter value)
[A] 0.618

[Q] Form field: PBM binding z-score recorded for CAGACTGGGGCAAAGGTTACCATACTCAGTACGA with RARa homodimer (NR concentration 270 nM) (enter value)
[A] 0.632

[Q] Form field: PBM binding z-score recorded for ACTATTAGTTGACTTAGGGCACCCGATACGACGC with RARa homodimer (NR concentration 270 nM) (enter value)
[A] 1.18

[Q] Form field: PBM binding z-score recorded for ATCGAAAGGTCGACGATGTGAGTATACACCGTTT with RARa homodimer (NR concentration 270 nM) (enter value)
[A] 0.516

[Q] Form field: PBM binding z-score recorded for ATCTCTAGGTAACCAAGTTCAGTGATTGCCGAAC with RARa homodimer (NR concentration 270 nM) (enter value)
[A] 0.307

---

system: RARg homodimer (NR concentration 270 nM); assay: PBM binding z-score (relative to random genomic background probes); higher = stronger binding; sequences stand for … in GC…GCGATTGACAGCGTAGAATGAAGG
If the reported PBM binding z-score equals or exceeds 1, assign yes. If not, assign no.

# example entries with known answers
# Polymer sequence, Target desc, Category label
records = [
    ("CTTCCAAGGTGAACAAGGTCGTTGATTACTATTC", "RARg homodimer (NR concentration 270 nM)", "yes"),
    ("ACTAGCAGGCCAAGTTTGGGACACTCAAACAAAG", "RARg homodimer (NR concentration 270 nM)", "no"),
    ("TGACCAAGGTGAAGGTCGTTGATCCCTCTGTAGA", "RARg homodimer (NR concentration 270 nM)", "yes"),
    ("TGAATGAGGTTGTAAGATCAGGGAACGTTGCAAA", "RARg homodimer (NR concentration 270 nM)", "no"),
    ("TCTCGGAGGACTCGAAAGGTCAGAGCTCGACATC", "RARg homodimer (NR concentration 270 nM)", "yes"),
]

[Q] Would you say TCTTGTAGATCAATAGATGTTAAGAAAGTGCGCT shows PBM binding z-score at minimum 1?
[A] no

[Q] Would you say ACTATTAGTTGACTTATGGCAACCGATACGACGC shows PBM binding z-score at minimum 1?
[A] no

[Q] Would you say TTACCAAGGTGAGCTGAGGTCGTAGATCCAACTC shows PBM binding z-score at minimum 1?
[A] yes

[Q] Would you say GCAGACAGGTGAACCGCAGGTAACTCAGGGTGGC shows PBM binding z-score at minimum 1?
[A] no

---

tested on: LXRb homodimer (NR concentration 270 nM); test: PBM binding z-score (relative to random genomic background probes); higher = stronger binding; sequences stand for … in GC…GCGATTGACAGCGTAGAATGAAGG
Measurement type: PBM binding z-score

# Polymer sequence, Target desc, PBM binding z-score
records = [
    ("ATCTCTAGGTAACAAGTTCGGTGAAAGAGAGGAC", "LXRb homodimer (NR concentration 270 nM)", 0.814),
    ("CCTAGCAGGCAAATCTGGGTCACTCAAGGCTTGA", "LXRb homodimer (NR concentration 270 nM)", -0.654),
]

[Q] Give the measured PBM binding z-score of GGAACGAGGGCATTCGAGTTGAGAGCATGGCGAT .
[A] -0.777

[Q] Give the measured PBM binding z-score of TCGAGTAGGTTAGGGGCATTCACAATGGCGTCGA .
[A] -0.112

---

tested on: RARa:RXR (NR concentration 270 nM, RXRa partner concentration 90 nM); assay: PBM binding z-score (relative to random genomic background probes); higher = stronger binding; sequences stand for … in GC…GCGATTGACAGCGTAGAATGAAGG
Recorded PBM binding z-score determines the group label, using label 0: < 0.8; label 1: ≥ 0.8 and < 2; label 2: ≥ 2

# example entries with known answers
# Polymer sequence, Target desc, Category label
rows = [
    ("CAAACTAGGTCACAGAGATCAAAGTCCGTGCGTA", "RARa:RXR (NR concentration 270 nM, RXRa partner concentration 90 nM)", "label 2"),
    ("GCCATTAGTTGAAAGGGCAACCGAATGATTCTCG", "RARa:RXR (NR concentration 270 nM, RXRa partner concentration 90 nM)", "label 1"),
]

[Q] Bin this entry: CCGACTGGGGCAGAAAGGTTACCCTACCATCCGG
[A] label 1

[Q] Bin this entry: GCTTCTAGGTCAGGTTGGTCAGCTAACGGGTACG
[A] label 1

[Q] Bin this entry: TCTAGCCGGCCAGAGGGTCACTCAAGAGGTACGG
[A] label 2

[Q] Bin this entry: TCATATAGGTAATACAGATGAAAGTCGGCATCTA
[A] label 0

[Q] Bin this entry: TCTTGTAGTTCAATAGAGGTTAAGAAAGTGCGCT
[A] label 2

[Q] Bin this entry: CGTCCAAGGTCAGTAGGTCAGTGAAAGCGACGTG
[A] label 2

[Q] Bin this entry: TTACCAAGGTGACGGTCGTTGATCCCTCTGTAGA
[A] label 0
